Would you kindly list melting point for each of these compounds?

Query COc1cc(-n2cnc3cc(-c4ccc(Cl)cc4)sc3c2=O)ccc1OCC1(O)CC(F)(F)C1 yields melting point of 198 to 199 °C

Query Clc1cc(CCc2ccccn2)c2oc(-c3cnc[nH]3)nc2c1 yields melting point of 202 to 209 °C

Query CCCCCc1c(C(C)O)nc(C(C)C)c(CO)c1-c1ccc(F)cc1 (centres undefined) yields melting point of 125 to 127 °C

Query CC(C)NC(=O)c1cc(N(C)C)cc(Oc2cccc(C(F)(F)F)c2)n1 yields melting point of 108 to 110 °C

Query CCCCCCCCCCCCCCCCCCOc1cc(OCCCCCCOc2ccc(OCc3ccccc3)cc2)cc(C(=O)OCc2ccccc2)c1 yields melting point of 60 to 62 °C

Query CC(C)(O)C#Cc1nccs1 yields melting point of 69 to 70 °C

Query O=S(=O)(c1ccccc1)c1ccc(S)cc1 yields melting point of 117 °C

Query CCN1C(=O)C(NC(=O)C(F)(F)F)CCc2c1ccc(Nc1ncc(Cl)c(Nc3ccccc3S(=O)(=O)N(C)C)n1)c2OC (centres undefined) yields melting point of 250 to 251 °C

Query COC(=O)c1cc(C(=O)N[C@@H](Cc2ccccc2)[C@H](O)CNC2(c3cccc(C(F)(F)F)c3)CC2)n2c1CN(C(=O)OC(C)(C)C)CC2 yields melting point of 136 °C
